Target: JAK2 kinase domain (Homo sapiens (Human))
Sequence (O60674 812-1132): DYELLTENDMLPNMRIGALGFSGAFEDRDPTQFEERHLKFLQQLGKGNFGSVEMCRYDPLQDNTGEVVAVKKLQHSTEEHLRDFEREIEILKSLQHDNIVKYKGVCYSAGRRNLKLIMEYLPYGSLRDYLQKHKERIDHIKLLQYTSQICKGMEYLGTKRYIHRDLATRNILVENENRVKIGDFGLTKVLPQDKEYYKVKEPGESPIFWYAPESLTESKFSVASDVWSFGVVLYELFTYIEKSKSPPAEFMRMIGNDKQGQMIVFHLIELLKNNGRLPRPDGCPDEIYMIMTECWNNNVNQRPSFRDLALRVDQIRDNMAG
Test: JAK2 inhibition assay (Caliper LabChip, isolated kinase domain)
Details: 25 uM ATP, 0.2 nM JAK2; read-out: JAK2 enzymatic activity (Ki)
# Ki per entry
PROPERTY NAME: Ki

molecule=COc1ccc(Cl)cc1-c1nn(CC(=O)N2CC=CCC2)cc1NC(=O)c1cnn2cccnc12 property_name=Ki obs_value="2.5 nM"
molecule=COc1ccc(Cl)cc1-c1nn(CC(O)(C(F)(F)F)C(F)(F)F)cc1NC(=O)c1cnn2cccnc12 property_name=Ki obs_value="5.7 nM"
molecule=Cc1cc(NC(=O)c2cnn3cccnc23)n(-c2ccccc2Br)n1 property_name=Ki obs_value="18 nM"
molecule="CCOc1ccc(Cl)cc1-c1nn([C@H]2CCCC[C@@H]2O)cc1NC(=O)c1cnn2cccnc12 (stereo in doubt)" property_name=Ki obs_value="12.5 nM"
molecule=COc1ccc(Cl)cc1-c1c(NC(=O)c2c(N)nn3cccnc23)cnn1CC(N)=O property_name=Ki obs_value="0.5 nM"
molecule=COc1ccc(C#N)cc1-c1nn(CC2(O)CCCC2)cc1NC(=O)c1cnn2cccnc12 property_name=Ki obs_value="4.2 nM"
molecule=Cc1cc(NC(=O)c2cnn3cccnc23)n(-c2cc(C#N)ccc2Cl)n1 property_name=Ki obs_value="5.7 nM"
molecule=N#CC1CCN(c2n[nH]cc2NC(=O)c2cnn3cccnc23)CC1 property_name=Ki obs_value="31.3 nM"
molecule=COc1ccc(Cl)cc1-c1c(NC(=O)c2cnn3cccnc23)cnn1CCO property_name=Ki obs_value="1 nM"
molecule=Cc1cc(NC(=O)c2cnn3cccnc23)n(-c2cc(Cl)ccc2C)n1 property_name=Ki obs_value="4.9 nM"
molecule=O=C(Nc1ccnn1-c1ccccc1Cl)c1cnn2cccnc12 property_name=Ki obs_value="15.2 nM"
molecule=Cc1cc(NC(=O)c2cnn3cccnc23)n(-c2cc(Cl)ccc2Cl)n1 property_name=Ki obs_value="3.3 nM"
molecule=O=C(Nc1c[nH]nc1-n1cc(Cl)ccc1=O)c1cnn2cccnc12 property_name=Ki obs_value="110 nM"
molecule=COc1ncc(C#N)cc1-c1n[nH]cc1NC(=O)c1cnn2cccnc12 property_name=Ki obs_value="1.5 nM"

----------
This section presents compounds with their documented Ki values.
Target: JAK1 kinase domain (Homo sapiens (Human), UniProt P23458)
Sequence (P23458 852-1154): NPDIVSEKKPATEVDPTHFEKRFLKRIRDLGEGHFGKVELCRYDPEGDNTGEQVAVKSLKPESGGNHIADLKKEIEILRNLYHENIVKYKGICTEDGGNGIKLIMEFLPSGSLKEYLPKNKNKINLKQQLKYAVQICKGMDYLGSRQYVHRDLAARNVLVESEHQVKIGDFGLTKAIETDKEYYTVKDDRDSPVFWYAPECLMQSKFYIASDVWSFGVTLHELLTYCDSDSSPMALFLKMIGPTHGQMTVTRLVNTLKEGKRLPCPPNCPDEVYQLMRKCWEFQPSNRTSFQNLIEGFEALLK
Experiment: JAK1 inhibition assay (Caliper LabChip, isolated kinase domain)
Conditions: 25 uM ATP, 1.5 nM JAK1; read-out: JAK1 enzymatic activity (Ki)
PROPERTY NAME: Ki (nM)

item_smiles=Cc1cc(NC(=O)c2cnn3cccnc23)n(-c2cc(Cl)ccc2Cl)n1 study_target="JAK1 kinase domain (Homo sapiens (Human), UniProt P23458)" obs_value=35.1
item_smiles=Cc1cc(NC(=O)c2cnn3cccnc23)n(-c2ccccc2Br)n1 study_target="JAK1 kinase domain (Homo sapiens (Human), UniProt P23458)" obs_value=131
item_smiles=O=C(Nc1c[nH]nc1-n1cc(Cl)ccc1=O)c1cnn2cccnc12 study_target="JAK1 kinase domain (Homo sapiens (Human), UniProt P23458)" obs_value=775
item_smiles=COc1ccc(F)cc1-c1nn(CC2(O)CCOCC2)cc1NC(=O)c1cnn2cccnc12 study_target="JAK1 kinase domain (Homo sapiens (Human), UniProt P23458)" obs_value=2.3
item_smiles=COc1ccc(Cl)cc1-c1c(NC(=O)c2cnn3cccnc23)cnn1CCO study_target="JAK1 kinase domain (Homo sapiens (Human), UniProt P23458)" obs_value=4.4
item_smiles=COc1ccc(C#N)cc1-c1nn(CC2(O)CCCC2)cc1NC(=O)c1cnn2cccnc12 study_target="JAK1 kinase domain (Homo sapiens (Human), UniProt P23458)" obs_value=1
item_smiles=N#CC1CCN(c2n[nH]cc2NC(=O)c2cnn3cccnc23)CC1 study_target="JAK1 kinase domain (Homo sapiens (Human), UniProt P23458)" obs_value=176

The reported numbers originate from patent US8999998B2.
